- Tested System: T1, human DLL4, full length, overexpressed on CHO or HEK293 cells (human, UniProt Q9NR61 27-685)
- T1 construct: also called CHO-hDLL4; CHO-hDII4
- Assay Protocol: periplasmic extract; FMAT, Notch1/Fc on CHO-hDLL4
Listing of recorded % inhibition by entry.
Response body: numeric value in %, unit text excluded.

Binder	% inhibition, %
DLLBII47D01 (VHH, also called DLLBII47D1; not shown: C-terminal c-myc and His6 tags) VHH: EVQLVESGGGLVQPGGSLRLSCAASGFTFDDYAIGWFRQAPGKEREGVSCISSSGSTYYADSVKGRFTISRDNAKNTVYLQMNSLKPEDTAVYYCAIAGASSWCFPPGYWGQGTQVTVSS	87

Exercise: I have this binder here, DLLBII96C03 (VHH, also called 96CO3; 96C3; not shown: C-terminal c-myc and His6 tags) VHH: EVQLVESGGGLVQPGGSLRLSCAASGFTFGNYDMSWVRQAPGKGPEWVSAINSGGGDTYYADSVKGRFTISRDNAKNTLYLQMNSLKPEDTAVYYCATPRGWGPTGPHEYGYWGQGTQVTVSS , and I need its recorded % inhibition.
Solution: 75

Exercise: Value lookup for % inhibition; key = DLLBII102G04 (VHH, also called DLLBII102G4; not shown: C-terminal c-myc and His6 tags) VHH: EVQLMESGGGLVQPGGSLRLSCAASGFTFSSYAMSWVRQAPGKGLEWVSRITSGGRTTYRDSVKGRFTISRDNSKNTLYLQMNSLKPEDTALYYCAKARGDIDVYTLSDSRGQGTQVTVSS
Solution: 86

FYI, the data here is from patent US20130078247A1.
